This collection of values is drawn from patent US12286455B2.

Tested on: Dirofilaria immitis R isolate (reduced sensitivity to macrocyclic lactones)
Assay: Method D study 1: efficacy against induced D. immitis infection in beagle dogs (R isolate)
Type: in vivo
Conditions: beagles, oral solution 2.5 mg/kg + ivermectin 6 μg/kg, days 0, 32, 60, 90 & 119, necropsy Day 150
assayReadout: Efficacy (%)

INSERT INTO assay_data (compound, testedtarget, recordedresult) VALUES
  ('CC(C)C[C@H]1C(=O)O[C@H](C)C(=O)N(C)[C@@H](CC(C)(C)F)C(=O)O[C@H](Cc2ccc(N3CCOCC3)cc2)C(=O)N(C)[C@@H](CC(C)C)C(=O)O[C@H](C)C(=O)N(C)[C@@H](CC(C)(C)F)C(=O)O[C@H](Cc2ccc(N3CCOCC3)cc2)C(=O)N1C [Compound 6-18]', 'Dirofilaria immitis R isolate (reduced sensitivity to macrocyclic lactones)', 100),
  ('CC(C)C[C@H]1C(=O)O[C@H](Cc2ccc(N3CCOCC3)cc2)C(=O)N(C)[C@@H](CC(C)C)C(=O)O[C@H](C)C(=O)N(C)[C@@H](CC(C)C)C(=O)O[C@H](Cc2ccc(N3CCOCC3)cc2)C(=O)N(C)[C@@H](CC(C)C)C(=O)O[C@H](C)C(=O)N1C [emodepside, reference compound]', 'Dirofilaria immitis R isolate (reduced sensitivity to macrocyclic lactones)', 98.8),
  ('CC(C)C[C@H]1C(=O)O[C@H](Cc2ccc(C3CCOCC3)cc2)C(=O)N(C)[C@@H](CC(C)C)C(=O)O[C@H](C)C(=O)N(C)[C@@H](CC(C)C)C(=O)O[C@H](Cc2ccc(C3CCOCC3)cc2)C(=O)N(C)[C@@H](CC(C)C)C(=O)O[C@H](C)C(=O)N1C [Compound 7-27]', 'Dirofilaria immitis R isolate (reduced sensitivity to macrocyclic lactones)', 100),
  ('CC(C)C[C@H]1C(=O)O[C@H](C)C(=O)N(C)[C@@H](CC(C)(C)F)C(=O)O[C@H](Cc2ccc(C(F)(F)F)cc2)C(=O)N(C)[C@@H](CC(C)C)C(=O)O[C@H](C)C(=O)N(C)[C@@H](CC(C)(C)F)C(=O)O[C@H](Cc2ccc(C(F)(F)F)cc2)C(=O)N1C [Compound 4-18]', 'Dirofilaria immitis R isolate (reduced sensitivity to macrocyclic lactones)', 100);
